- Target under test: cynomolgus monkey AR (Macaca fascicularis)
- Construct: expressed in transfected cells; host or cells: COS7
- Method: AR reporter assay (MMTV-luc) in COS7 cells expressing monkey AR
- Format: cell-based
- Experimental parameters: monkey AR reporter assay (abstract); read-out: EC50
Property label: EC50 (nM)
Answers are plain numbers, in nM.

Incoming: Query for cynomolgus monkey AR (Macaca fascicularis): what EC50 does the record show for CC[C@H]1[C@@H](O)CC(=O)N1c1ccc(C#N)c(C(F)(F)F)c1 [SARM‐2f] ?
Outgoing: 3

----------
- Target under test: rat AR (Rattus norvegicus)
- Construct: expressed in transfected cells; host or cells: COS7
- Sequence (P15207 whole entry S389L): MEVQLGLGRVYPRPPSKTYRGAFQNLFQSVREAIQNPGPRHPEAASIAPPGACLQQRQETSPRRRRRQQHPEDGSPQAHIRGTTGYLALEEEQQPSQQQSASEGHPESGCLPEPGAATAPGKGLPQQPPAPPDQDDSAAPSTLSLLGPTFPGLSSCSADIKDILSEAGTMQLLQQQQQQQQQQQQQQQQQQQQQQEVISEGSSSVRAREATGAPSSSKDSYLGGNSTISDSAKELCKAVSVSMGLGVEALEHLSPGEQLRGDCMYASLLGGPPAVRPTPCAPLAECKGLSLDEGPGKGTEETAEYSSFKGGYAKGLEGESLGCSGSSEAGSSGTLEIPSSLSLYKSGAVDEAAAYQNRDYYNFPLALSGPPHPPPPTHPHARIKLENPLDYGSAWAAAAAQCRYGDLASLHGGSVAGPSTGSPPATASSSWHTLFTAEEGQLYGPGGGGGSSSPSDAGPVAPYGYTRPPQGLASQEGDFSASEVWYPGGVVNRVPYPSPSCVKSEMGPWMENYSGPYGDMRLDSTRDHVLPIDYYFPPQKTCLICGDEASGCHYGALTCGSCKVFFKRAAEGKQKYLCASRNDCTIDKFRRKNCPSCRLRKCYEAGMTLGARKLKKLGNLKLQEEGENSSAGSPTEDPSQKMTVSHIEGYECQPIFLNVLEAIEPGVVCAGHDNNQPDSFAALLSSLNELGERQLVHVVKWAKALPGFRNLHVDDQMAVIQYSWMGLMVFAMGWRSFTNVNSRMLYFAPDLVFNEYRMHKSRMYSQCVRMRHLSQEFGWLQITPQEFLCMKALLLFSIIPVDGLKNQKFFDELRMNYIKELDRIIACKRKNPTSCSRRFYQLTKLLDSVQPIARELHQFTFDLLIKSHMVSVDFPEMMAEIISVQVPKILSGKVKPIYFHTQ
- Method: AR reporter assay (MMTV-luc) in COS7 cells expressing rat AR
- Format: cell-based
Property label: EC50 (nM)
Numbers only, in nM.

Incoming: Can you look up the measured EC50 of C[C@](O)(COc1ccc(C#N)cc1)C(=O)Nc1ccc(C#N)c(C(F)(F)F)c1 [ostarine, reference compound] for me?
Outgoing: 2.5

----------
- Target under test: cynomolgus monkey AR (Macaca fascicularis)
- Construct: expressed in transfected cells; host or cells: COS7
- Sequence (O97952 1-895): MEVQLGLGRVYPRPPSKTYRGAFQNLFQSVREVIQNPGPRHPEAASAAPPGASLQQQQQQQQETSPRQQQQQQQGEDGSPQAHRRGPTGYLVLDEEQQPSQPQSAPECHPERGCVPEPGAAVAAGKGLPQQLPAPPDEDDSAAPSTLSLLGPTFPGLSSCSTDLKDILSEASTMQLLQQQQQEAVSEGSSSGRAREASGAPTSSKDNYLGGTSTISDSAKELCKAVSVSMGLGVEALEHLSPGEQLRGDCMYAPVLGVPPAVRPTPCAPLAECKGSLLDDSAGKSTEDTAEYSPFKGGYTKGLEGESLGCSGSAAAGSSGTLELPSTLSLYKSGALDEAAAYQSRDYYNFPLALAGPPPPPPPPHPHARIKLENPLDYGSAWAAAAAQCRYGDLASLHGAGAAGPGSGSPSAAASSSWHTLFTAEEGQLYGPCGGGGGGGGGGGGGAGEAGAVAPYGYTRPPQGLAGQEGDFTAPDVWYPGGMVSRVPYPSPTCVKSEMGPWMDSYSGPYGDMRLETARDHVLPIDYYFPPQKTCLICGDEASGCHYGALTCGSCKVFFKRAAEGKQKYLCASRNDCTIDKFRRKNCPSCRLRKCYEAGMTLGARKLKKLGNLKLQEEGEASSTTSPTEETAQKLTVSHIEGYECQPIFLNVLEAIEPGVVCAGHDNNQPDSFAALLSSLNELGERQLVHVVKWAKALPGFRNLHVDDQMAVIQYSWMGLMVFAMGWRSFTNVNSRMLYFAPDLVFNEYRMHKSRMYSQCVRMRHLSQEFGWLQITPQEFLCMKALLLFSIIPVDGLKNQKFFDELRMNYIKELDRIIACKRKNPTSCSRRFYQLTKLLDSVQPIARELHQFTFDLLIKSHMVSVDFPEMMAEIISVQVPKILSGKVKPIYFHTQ
- Method: AR reporter assay (MMTV-luc) in COS7 cells expressing monkey AR
- Type: cell-based
Property label: pEC50
Answers are plain numbers, as −log10 of the molar value.

Incoming: Entry under review: C[C@](O)(COc1ccc(C#N)cc1)C(=O)Nc1ccc(C#N)c(C(F)(F)F)c1 [ostarine, reference compound] . Reported pEC50?
Outgoing: 8.66
